- System: Neuro-2a
- TEST SUMMARY: neurite formation score, plate-normalized to DMSO control mean 5.04 (score (0-8 scale)); higher = more or longer neurites
- COND: 1 µM
PARAMETER MEASURED: neurite formation score

# example entries with known answers
- COMPOUND: "Cn1cnc(=N)c2[nH]cnc21"
  VALUE: 4.24
- COMPOUND: "COc1cc(Nc2c(C#N)cnc3cc(OCCCN4CCN(C)CC4)c(OC)cc23)c(Cl)cc1Cl [Bosutinib (SKI-606)]"
  VALUE: 4.57
- COMPOUND: "Cc1ccc(C(=O)Nc2ccc(CN3CCN(C)CC3)c(C(F)(F)F)c2)cc1C#Cc1cnc2[nH]ncc2c1"
  VALUE: 0.626
- COMPOUND: "CNC(=O)c1cc(Oc2ccc3nc(N[C@@H]4CCCC[C@H]4O)sc3c2)ccn1"
  VALUE: 3.21
- COMPOUND: "CC(C)(C)c1nc2c3cc[nH]c(=O)c3c3cc(F)ccc3c2[nH]1"
  VALUE: 3.69
- COMPOUND: "COc1cc(Nc2ncc(F)c(Nc3ccc4c(n3)N(COP(=O)(O)O)C(=O)C(C)(C)O4)n2)cc(OC)c1OC [Fostamatinib (R788)]"
  VALUE: 4.8

Entry N#C/C(=C(/N)Sc1ccc(N)cc1)c1ccccc1C(F)(F)F has what neurite formation score?
3.91

Entry COc1cc(N2CCC(N)CC2)ccc1Nc1ncc(Cl)c(-c2c[nH]c3ccccc23)n1 has what neurite formation score?
4.63

Entry C[C@@H]1COCCN1c1cc(C2(S(C)(=O)=O)CC2)nc(-c2cccc3[nH]ccc23)n1 has what neurite formation score?
4.57

Entry Nc1nc(N)c2nc(-c3cccc(O)c3)c(-c3cccc(O)c3)nc2n1 has what neurite formation score?
4.24

Entry O=c1c(-c2ccc(O)cc2)coc2cc(O)cc(O)c12 has what neurite formation score?
4.57

Entry CC(C)c1cnn2c(NCc3ccccc3)cc(NCCCCCCN)nc12 has what neurite formation score?
4.57

Entry O=C(Nc1cccnc1)c1cc(-c2ccnc(F)c2)ccc1OCc1ccccc1 has what neurite formation score?
3.88

Entry Cn1cnc(-c2cc3nccc(Oc4ccc(NC(=S)NC(=O)Cc5ccccc5)cc4F)c3s2)c1 has what neurite formation score?
3.69

Entry CCn1c(N)c(C(=O)NC)c(=O)c2ccc(C#CC(C)(O)COC)nc21 (stereo unspecified) has what neurite formation score?
4.54

Entry CO[C@H]1C[C@@H]2CC[C@@H](C)[C@@](O)(O2)C(=O)C(=O)N2CCCC[C@H]2C(=O)O[C@H]([C@H](C)C[C@@H]2CC[C@@H](OCCO)[C@H](OC)C2)CC(=O)[C@H](C)/C=C(\C)[C@@H](O)[C@@H](OC)C(=O)[C@H](C)C[C@H](C)/C=C/C=C/C=C/1C [Everolimus (RAD001)] has what neurite formation score?
4.57

Entry CNC(=O)c1ccccc1Sc1ccc2c(/C=C/c3ccccn3)n[nH]c2c1 has what neurite formation score?
3.57

Entry O=C(NCc1ccccc1)c1csc(Nc2ccncn2)n1 has what neurite formation score?
4.57

Entry CCC[C@H](NC(=O)/C(C#N)=C/c1cccc(Br)n1)c1ccccc1 has what neurite formation score?
1.24

Entry Cc1ccccc1-n1c(Cn2nc(-c3cccc(O)c3)c3c(N)ncnc32)nc2cccc(C)c2c1=O has what neurite formation score?
4.88

Entry CC(=O)Nc1cccc(-n2c(=O)n(C3CC3)c(=O)c3c(Nc4ccc(I)cc4F)n(C)c(=O)c(C)c32)c1 has what neurite formation score?
3.57
